- Tested on: Eastern equine encephalitis virus
- Experiment Notes: Antiviral activity against Eastern equine encephalitis virus co-culture with brain Primary neuron cells HNC001 as reduction on virus titre at 5 uM in Vero 76 cells measured after 18 hrs by TCID50-MTT assay
- Format: functional, organism-based
Active and inactive are the calls of the source. The rule behind the calls is not given here.
Assay Metric: Activity

Query: Record request: Activity value, item COc1ccc(N2C(=O)c3cc(C#N)cc(-c4ccc(C)nc4)c3N=C3[C@@H]2N(C)CCN3C)cc1F
Result: Active

Query: Ok, now COc1ccc(N2C(=O)c3cc([N+](=O)[O-])ccc3N=C3C2N(C)CCN3C)cc1 (stereo not given)
Result: Active

Query: Ok, now COc1ccc(N2C(=O)c3cc(C#N)cc(-c4ccc(C)nc4)c3N=C3[C@H]2N(C)CCN3C)cc1F
Result: Active

Query: Ok, now COc1ccc(N2C(=O)c3cc([N+](=O)[O-])ccc3N=C3C2N(C)CCN3C)cc1F (stereo not given)
Result: Active

---
Query: Record request: Activity value, item COc1ccc(N2C(=O)c3cc(C#N)cc(-c4ccc(C)nc4)c3N=C3C2N(C)CCN3C)cc1F (racemic)
Result: Active

* * *

Can you tell me EC50 for the items I'm about to list?
- Test system: Eastern equine encephalitis virus
- Experiment Notes: Antiviral activity against eastern equine encephalitis virus infected in African green monkey Vero 76 cells assessed as virus induced cytopathic effect measured after 48 hrs
- Format: functional, organism-based
- Measurement Setup: Vero 76, 48 h
Write down the numeric answer in nM and omit the unit.

Query: Record request: EC50 value, item CN1CCN(C)C2C1=Nc1ccc([N+](=O)[O-])cc1C(=O)N2c1ccc(F)cc1 (configuration not stated)
Result: 110

Query: Ok, now COc1ccc(N2C(=O)c3cc(C#N)cc(Br)c3N=C3C2N(C)CCN3C)cc1F (configuration not stated)
Result: 3200

Query: Ok, now COc1ccc(N2C(=O)c3cc(C#N)cc(-c4ccc(C)nc4)c3N=C3[C@@H]2N(C)CCN3C)cc1F
Result: 260

Query: Ok, now CN1CCN(C)C2C1=Nc1ccc(C#N)cc1C(=O)N2c1ccccc1 (configuration not stated)
Result: 4400

Query: Ok, now COc1ccc(N2C(=O)c3cc(C#N)cc(N4CCOCC4)c3N=C3C2N(C)CCN3C)cc1F (configuration not stated)
Result: 1900

Query: Ok, now COc1ccc(N2C(=O)c3cc([N+](=O)[O-])ccc3N=C3[C@@H]2N(C)[C@@H]2CCCC[C@H]2N3C)cc1
Result: 4500

Query: Ok, now COc1ccc(N2C(=O)c3cc(C#N)cc(-c4ccc(C)nc4)c3N=C3[C@H]2N(C)CCN3C)cc1F
Result: 300

Query: Ok, now COc1ccc(N2C(=O)c3cc([N+](=O)[O-])ccc3N=C3[C@H]2N(C)[C@H]2CCCC[C@@H]2N3C)cc1
Result: 3800

Query: Ok, now COc1ccc(N2C(=O)c3cc(C#N)cc(-c4ccc(C)nc4)c3N=C3C2N(C)CCN3C)cc1F (racemic)
Result: 160

Query: Ok, now COc1ccc(N2C(=O)c3cc([N+](=O)[O-])ccc3N=C3C2N(C2CCCCC2)CCN3C)cc1 (configuration not stated)
Result: 6200

Query: Ok, now COc1cccc(N2C(=O)c3cc([N+](=O)[O-])ccc3N=C3C2N(C)CCN3C)c1 (configuration not stated)
Result: 500

Query: Ok, now COc1ccc(N2C(=O)c3cc([N+](=O)[O-])ccc3N=C3C2N(Cc2ccccc2)CCN3Cc2ccccc2)cc1 (configuration not stated)
Result: 13800

Query: Ok, now COc1ccc(N2C(=O)c3cc([N+](=O)[O-])ccc3N=C3C2N(C)CCN3C)cc1 (configuration not stated)
Result: 33

Query: Ok, now COc1ccc(N2C(=O)c3cc([N+](=O)[O-])ccc3N=C3C2N(Cc2ccccc2)CCN3C)cc1 (configuration not stated)
Result: 3200

Query: Ok, now COc1ccc(N2C(=O)c3cc(C#N)ccc3N=C3C2N(C)CCN3C)cc1 (configuration not stated)
Result: 2500
